# System: 60 human tumor cell lines (NCI60)
# protocol_details: NCI60 five-dose screen, overall mean
# Assay type: cell-based
# measurement_context: 60 cell, read-out: Mean GI50, mean over all 60 cell lines

{"compound": "CC[C@]12C=CCN3CC[C@@]4(c5ccc(OC)cc5N(C)[C@H]4[C@@](O)(C(=O)OC)[C@@H]1OC(=O)CCC[P+](c1ccc(F)cc1)(c1ccc(F)cc1)c1ccc(F)cc1)[C@@H]32", "target_or_test_system": "60 human tumor cell lines (NCI60)", "GI50": "17 µM"}
{"compound": "CC[C@]12C=CCN3CC[C@@]4(c5ccc(OC)cc5N(C)[C@H]4[C@@](O)(C(=O)OC)[C@@H]1OC(=O)CCCC[P+](c1ccc(C)cc1)(c1ccc(C)cc1)c1ccc(C)cc1)[C@@H]32 [10a]", "target_or_test_system": "60 human tumor cell lines (NCI60)", "GI50": "< 3 µM"}
{"compound": "CC[C@]12C=CCN3CC[C@@]4(c5ccc(OC)cc5N(C)[C@H]4[C@@](O)(C(=O)OC)[C@@H]1OC(=O)CCCC[P+](c1ccc(OC)cc1)(c1ccc(OC)cc1)c1ccc(OC)cc1)[C@@H]32 [10b]", "target_or_test_system": "60 human tumor cell lines (NCI60)", "GI50": "< 3 µM"}
{"compound": "CC[C@]12C=CCN3CC[C@@]4(c5ccc(OC)cc5N(C)[C@H]4[C@@](O)(C(=O)OC)[C@@H]1OC(=O)CCC[P+](C1CCCCC1)(C1CCCCC1)C1CCCCC1)[C@@H]32", "target_or_test_system": "60 human tumor cell lines (NCI60)", "GI50": "3.8 µM"}

---

# Tested on: DU-145
# protocol_details: NCI60 five-dose screen
# Format: cell-based
# measurement_context: Homo sapiens, DU-145
Quick reference for GI50 among some molecules
endpoint_name: GI50 (nM)

{"molecule": "CC[C@]12C=CCN3CC[C@@]4(c5ccc(OC)cc5N(C)[C@H]4[C@@](O)(C(=O)OC)[C@@H]1OC(=O)CCC[P+](c1ccc(F)cc1)(c1ccc(F)cc1)c1ccc(F)cc1)[C@@H]32", "target_or_test_system": "DU-145", "reported_measurement": 23700}
{"molecule": "CCC12C=CCN3CCC4(c5ccc(OC)cc5N(C)C4C(O)(C(=O)OC)C1OC(=O)CCC[P+](c1ccc(C)cc1)(c1ccc(C)cc1)c1ccc(C)cc1)C32 (stereo not drawn)", "target_or_test_system": "DU-145", "reported_measurement": 457}
{"molecule": "CC[C@]12C=CCN3CC[C@@]4(c5ccc(OC)cc5N(C)[C@H]4[C@@](O)(C(=O)OC)[C@@H]1OC(=O)CCC[P+](c1ccccc1)(c1ccccc1)c1ccccc1OC)[C@@H]32", "target_or_test_system": "DU-145", "reported_measurement": 418}

---

# System: CAKI-1
# protocol_details: NCI60 one-dose screen
# Assay type: cell-based
# measurement_context: Homo sapiens, CAKI-1, read-out: Growth percent
endpoint_name: activity at 10 µM (%)

{"compound": "CC[C@]12C=CCN3CC[C@@]4(c5ccc(OC)cc5N(C)[C@H]4[C@@](O)(C(=O)OC)[C@@H]1OC(=O)CCCC[P+](C1CCCCC1)(C1CCCCC1)C1CCCCC1)[C@@H]32 [10d]", "target_or_test_system": "CAKI-1", "value_unit": "%", "reported_measurement": -24.1}
{"compound": "CCC12C=CCN3CCC4(c5ccc(OC)cc5N(C)C4C(O)(C(=O)OC)C1OC(=O)CCC[P+](c1ccc(C)cc1)(c1ccc(C)cc1)c1ccc(C)cc1)C32 (stereo not drawn) [9a]", "target_or_test_system": "CAKI-1", "value_unit": "%", "reported_measurement": -95.3}
{"compound": "CC[C@]12C=CCN3CC[C@@]4(c5ccc(OC)cc5N(C)[C@H]4[C@@](O)(C(=O)OC)[C@@H]1OC(=O)CCCC[P+](c1ccccc1)(c1ccccc1)c1ccccc1)[C@@H]32 [compound 4, reference compound]", "target_or_test_system": "CAKI-1", "value_unit": "%", "reported_measurement": 85.9}
